Molecular target: full-length beta-Catenin (Uniprot ID P35222) (Homo sapiens, UniProt P35222)
Construct: 10 nM full-length beta-Catenin (Uniprot ID P35222)
Sequence (P35222 whole entry): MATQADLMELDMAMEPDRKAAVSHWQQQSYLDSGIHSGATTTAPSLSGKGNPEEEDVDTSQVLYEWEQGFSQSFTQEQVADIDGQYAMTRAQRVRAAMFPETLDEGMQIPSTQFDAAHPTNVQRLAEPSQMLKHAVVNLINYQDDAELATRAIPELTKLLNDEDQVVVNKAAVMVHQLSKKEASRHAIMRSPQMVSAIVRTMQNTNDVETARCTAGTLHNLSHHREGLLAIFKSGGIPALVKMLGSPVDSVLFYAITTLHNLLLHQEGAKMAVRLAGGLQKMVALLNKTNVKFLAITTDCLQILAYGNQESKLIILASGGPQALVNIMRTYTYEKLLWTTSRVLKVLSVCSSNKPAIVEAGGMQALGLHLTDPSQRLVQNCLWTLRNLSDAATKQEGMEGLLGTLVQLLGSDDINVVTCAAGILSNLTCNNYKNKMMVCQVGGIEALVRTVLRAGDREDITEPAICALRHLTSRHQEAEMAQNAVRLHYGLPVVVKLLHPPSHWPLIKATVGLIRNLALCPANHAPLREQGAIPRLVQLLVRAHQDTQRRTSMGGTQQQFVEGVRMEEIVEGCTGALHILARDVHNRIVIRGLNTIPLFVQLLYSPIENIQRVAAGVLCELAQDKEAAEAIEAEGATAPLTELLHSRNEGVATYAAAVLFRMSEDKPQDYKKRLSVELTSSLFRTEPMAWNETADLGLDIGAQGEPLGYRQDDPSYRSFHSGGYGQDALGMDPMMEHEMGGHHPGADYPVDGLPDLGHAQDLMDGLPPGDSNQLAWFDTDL
Assay: Fluorescence polarization IC50 (beta-catenin / 5FAM-TCF4 10-53 competition)
Assay type: binding
Settings: read-out: FP EC50
pIC50: −log10 of the molar value.
Below: a set of entries, each annotated with reported pIC50.
value.type: pIC50

- compound: "CC(=O)N1CCC[C@]12CC=CCCCC1(CCCC=CCCCCCC[C@@](C)(C(=O)N[C@@H](Cc3ccccc3)C(=O)N[C@@H](Cc3csc4ccccc34)C(=O)N[C@@H](CCC(N)=O)C(N)=O)NC(=O)[C@H](CC(N)=O)NC(=O)[C@H](Cc3cccs3)NC(=O)[C@H](C)NC(=O)[C@H](C)NC(=O)[C@H](CCC(=O)O)NC(=O)[C@H](CC(=O)O)NC1=O)NC(=O)[C@H](C)NC(=O)[C@H](CC(=O)O)NC2=O (some centres unmarked) [I-447]"
  value.type: "pIC50"
  reported.result: 7.13
- compound: "CC(=O)N1CCC[C@]12CC=CCCCC1(CCCC=CCOC(=O)N(C)CCC[C@@](C)(C(=O)N[C@@H](Cc3ccsc3)C(=O)N[C@@H](Cc3csc4ccccc34)C(=O)N[C@@H](CCC(N)=O)C(N)=O)NC(=O)[C@H](CC(N)=O)NC(=O)[C@H](Cc3ccccc3)NC(=O)[C@H](C)NC(=O)[C@H](C)NC(=O)[C@H](CC(=O)O)NC(=O)[C@H](CC(=O)O)NC1=O)NC(=O)[C@H](CC(C)(C)C)NC(=O)[C@H](CC(=O)O)NC2=O (some centres unmarked) [I-765]"
  value.type: "pIC50"
  reported.result: 6.64
- compound: "CC[C@H](C)[C@@H]1NC(=O)[C@H](CC(=O)O)NC(=O)[C@]2(CC=CCCCC3(CCCC=CCCCCCC[C@@](C)(C(=O)N[C@@H](Cc4ccccc4)C(=O)N[C@@H](Cc4csc5ccccc45)C(=O)N[C@@H](CCC(N)=O)C(N)=O)NC(=O)[C@H](CCC(N)=O)NC(=O)[C@H](Cc4ccccc4)NC(=O)[C@H](C)NC(=O)[C@H](C)NC(=O)[C@H](Cc4ccc(C(=O)O)cc4)NC(=O)[C@H](CC(=O)O)NC3=O)NC1=O)CCCN2C(C)=O (some centres unmarked) [I-606]"
  value.type: "pIC50"
  reported.result: 6.54
- compound: "CC(=O)N1CCC[C@]12CC=CCCCC1(CCCC=CCCCCCC[C@@](C)(C(=O)N[C@@H](Cc3ccccc3)C(=O)N[C@@H](Cc3csc4ccccc34)C(=O)N[C@@H](CCC(N)=O)C(N)=O)NC(=O)[C@H](CC(N)=O)NC(=O)[C@H](Cc3ccccc3)NC(=O)[C@H](C)NC(=O)[C@H](C)NC(=O)[C@H](CCC(=O)O)NC(=O)[C@H](CC(=O)O)NC1=O)NC(=O)[C@H](C)NC(=O)[C@H](CC(=O)O)NC2=O (some centres unmarked) [I-425]"
  value.type: "pIC50"
  reported.result: 7.30
- compound: "CC[C@H](C)[C@@H]1NC(=O)[C@H](CC(=O)O)NC(=O)[C@]2(CC=CCCCC3(CCCC=CCCCCCC[C@@](C)(C(=O)N[C@@H](Cc4ccccc4)C(=O)N[C@@H](Cc4csc5ccccc45)C(=O)N[C@@H](CCC(N)=O)C(N)=O)NC(=O)[C@H](CCC(N)=O)NC(=O)[C@H](Cc4ccccc4)NC(=O)[C@H](CO)NC(=O)[C@H](C)NC(=O)[C@H](CCC(=O)O)NC(=O)[C@H](CC(=O)O)NC3=O)NC1=O)CCCN2C(C)=O (some centres unmarked) [I-661]"
  value.type: "pIC50"
  reported.result: 7.35

Values were extracted from patent US20240116985A1.
